Origin of values: the RNAGym collection of RNA variant scans (doi:10.1073/pnas.2313332121)

B1: TPR t1 (parent)
chain: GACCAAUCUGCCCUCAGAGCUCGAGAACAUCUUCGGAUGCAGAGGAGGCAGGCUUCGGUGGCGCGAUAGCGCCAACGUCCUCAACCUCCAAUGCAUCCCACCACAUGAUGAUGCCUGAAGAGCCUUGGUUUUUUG

Variants of: B1
method: polymerase ribozyme fitness, log enrichment relative to wild type (log ratio); higher = more active; in vitro selection for triplet polymerase activity
I would appreciate it if you labelled entries t when polymerase ribozyme fitness (log ratio) is -2 or higher, otherwise f.

Reference set, count: 5
| variant-identifier | class-label |
| --- | --- |
| A119C A121U | t |
| C56G A84G G120A | t |
| C104A U125G | f |
| A6U C28U C123U | t |
| C56U U133A | t |

Query: Has C64U C104A a recorded polymerase ribozyme fitness (log ratio) greater than or equal to -2?
Response: t

Query: Confirm if polymerase ribozyme fitness (log ratio) reported for the variant A43C U55G G61C C79U C97U U116G is -2 or above.
Response: f

Query: Is polymerase ribozyme fitness (log ratio) for G47C A50U C72U U81C C114U at or above -2?
Response: f

Query: Decide: polymerase ribozyme fitness (log ratio) of G48U G107U A111C C123A >= -2?
Response: f

Query: API: above_or_equal(metric=polymerase ribozyme fitness (log ratio), cutoff=-2) for item C104U C124U
Response: t

Query: Test whether the variant C13U G113U records polymerase ribozyme fitness (log ratio) of -2 or higher.
Response: f
